B1: Hairpin Ribozyme (parent)
chain: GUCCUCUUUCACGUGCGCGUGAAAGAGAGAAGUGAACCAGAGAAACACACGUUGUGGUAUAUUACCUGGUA

- Variants of: B1
- experiment: self-cleavage, relative activity (ratio to wild type); higher = more cleavage; co-transcriptional
Label rule, in plain words: self-cleavage of 0.6 and up is True, under 0.6 is False.

Field: example entries. Status: answers known.
[Q] # bool: self-cleavage of `GUCCUCUUUCACGUGCGCGUGAUAGAGGGAAGUGAACCAGAGAAACACACGUUGUGGUAUAUUACCUGGUA` >= 0.6
[A] True

[Q] # bool: self-cleavage of `GUCCUCUUGCACGUGCCCGUGAAAGAGAGAAGUGAACCAGAGAAACACACGUUGUGGUAUAUUACCUGGUA` >= 0.6
[A] False

[Q] # bool: self-cleavage of `GUCCUCUUUCACUUGCGCGUGAAAGAGAUAAGUGAACCAGAGAAACACACGUUGUGGUAUAUUACCUGGUA` >= 0.6
[A] False

[Q] # bool: self-cleavage of `GUCCUCUUUCACGUCCGCGUGAAAGAGAGAAGUGAACCAGAGAAACACACGUUUUGGUAUAUUACCUGGUA` >= 0.6
[A] True

[Q] # bool: self-cleavage of `GUCCUCUUUCACGUGCGCAUGAAAUAGAGAAGUGAACCAGAGAAACACACGUUGUGGUAUAUUACCUGGUA` >= 0.6
[A] False

Continuing:
[Q] # bool: self-cleavage of `GUCCUCUUUCACGUGCGCGGGAAAGAGAGAAGUUAACCAGAGAAACACACGUUGUGGUAUAUUACCUGGUA` >= 0.6
[A] True

[Q] # bool: self-cleavage of `GUGCUCUUUCACGUGCGCGUGAAAGAGAGAAGUGAACCAGAGAAACACACGUUGUGGUAUAGUACCUGGUA` >= 0.6
[A] False

[Q] # bool: self-cleavage of `GUCCUCUUUCACGUGCGCGUGAAAGAGAGAAGUGAACCAGAGAAACAAACGUUCUGGUAUAUUACCUGGUA` >= 0.6
[A] False

[Q] # bool: self-cleavage of `GUCCACUUUCACGUGCGCGUGAAAAAGAGAAGUGAACCAGAGAAACACACGUUGUGGUAUAUUACCUGGUA` >= 0.6
[A] False

[Q] # bool: self-cleavage of `GUCCUCUUUCACGUGCGCGUUAAAGAGAGAAGUGACCCAGAGAAACACACGUUGUGGUAUAUUACCUGGUA` >= 0.6
[A] False

[Q] # bool: self-cleavage of `GUCCUCUUUCACGUGUGCGUGAAAGAGAGAAUUGAACCAGAGAAACACACGUUGUGGUAUAUUACCUGGUA` >= 0.6
[A] False

[Q] # bool: self-cleavage of `GUCCUCUUUCACGUGCACGUGAAAGAGAGAAGUGAACCAGAGAAACACACGUUGUGGUAUAUUAACUGGUA` >= 0.6
[A] True

[Q] # bool: self-cleavage of `GUCCUCUUUCACGUGCGCGUGAAAGAGAGAAGUGAACCAAAGAAACGCACGUUGUGGUAUAUUACCUGGUA` >= 0.6
[A] False
